Values from patent US4933347A

The following compounds are listed with their measured Extent of Disease by Histologic Score: number of animals with score 3 values.
# Tested on: Pneumocystis carinii
# Run Description: Treatment of Pneumocystis carinii pneumonia in Sprague-Dawley rats (extent of disease by histologic score)
# Format: in vivo, male Sprague-Dawley rats
# Conditions Used: 10 mg/kg i.v. daily, 14 days; 3 = scattered cysts, 10-50% of lung involved with some intense areas of infection
Measurement Name: Extent of Disease by Histologic Score: number of animals with score 3

Entry Smiles | Result
N=C(N)c1ccc(NCCCCNc2ccc(C(=N)N)cc2N)c(N)c1 | 1 animals
N=C(N)c1ccc(OCCCCOc2ccc(C(=N)N)cc2N)c(N)c1 | 0 animals
N=C(N)c1ccc(NCCNc2ccc(C(=N)N)cc2N)c(N)c1 | 3 animals
N=C(N)c1ccc(NCCCCCCNc2ccc(C(=N)N)cc2N)c(N)c1 | 0 animals
N=C(N)c1ccc(OCCCOc2ccc(C(=N)N)cc2)cc1 | 0 animals
N=C(N)c1cccc(OCCCCOc2cccc(C(=N)N)c2)c1 | 3 animals
N=C(N)c1ccc(NCCCCCCNc2ccc(C(=N)N)cc2)cc1 | 0 animals
c1cc(C2=NCCN2)ccc1OCCCCOc1ccc(C2=NCCN2)cc1 | 1 animals
N=C(N)c1ccc(OCCCCOc2ccc(C(=N)N)cc2)cc1 | 0 animals

====

# Run Description: Toxicity of amidines in rats (standard laboratory procedure)
# Format: in vivo
# Conditions Used: rat, in vivo, 2.5 mg/kg
Measurement Name: Toxicity of amidines: Effect

Molecule | Measurement Name | Result
CN1CCN=C1c1ccc(OCCCCCOc2ccc(C3=NCCN3C)cc2)cc1 [Example 42] | Toxicity of amidines: Effect | no toxicity
COc1cc(C2=NCCN2)ccc1OCCCOc1ccc(C2=NCCN2)cc1OC [Example 44] | Toxicity of amidines: Effect | no toxicity
N=C(N)c1ccc(OCCCCOc2ccc(C(=N)N)cc2Cl)c(Cl)c1 [Example 24] | Toxicity of amidines: Effect | None
CN1CCN=C1c1ccc(OCCCCOc2ccc(C3=NCCN3C)cc2)cc1 [Example 41] | Toxicity of amidines: Effect | no toxicity
N=C(N)c1ccc(OCCCCCOc2ccc(C(=N)N)cc2Cl)c(Cl)c1 [Example 25] | Toxicity of amidines: Effect | None

====

# System: Pneumocystis carinii
# Run Description: Treatment of Pneumocystis carinii pneumonia in Sprague-Dawley rats (extent of disease by histologic score)
# Assay type: in vivo, male Sprague-Dawley rats
# Conditions Used: Table XII composite, 10 mg/kg; 1 = scattered cysts, <5% of lung involved
# Method: Induction and Treatment Of Pneumocystis Carinii in Sprague-Dawley Rats Male Sprague-Dawley rats, barrier raised, non-certified virus free, weighing 150-200g were obtained from Hilltop Laboratories and housed individually. Animals were begun on a low (8%) protein diet (ICN Biomedicals, Cincinnati, OH) and drinking water containing tetracycline (0.5 mg/ml) and dexamethasone (1.0 μg/ml) immediately upon arrival. […]
Labelling: Extent of disease by histologic score (combined): number of animals in scoring group 1 reported below 2 animals becomes condition met; at or above becomes condition not met.

Molecule | Group Label
N=C(N)c1ccc(OCCCCCOc2ccc(C(=N)N)cc2)cc1 [Example 12, Pentamidine, reference compound] | condition not met
N=C(N)c1ccc(OCCCCOc2ccc(C(=N)N)cc2)cc1 | condition met
N=C(N)c1ccc(NCCNc2ccc(C(=N)N)cc2N)c(N)c1 | condition met
N=C(N)c1ccc(NCCCCCCNc2ccc(C(=N)N)cc2N)c(N)c1 | condition met
N=C(N)c1ccc(NCCCNc2ccc(C(=N)N)cc2)cc1 | condition met
N=C(N)c1ccc(OCCCCCOc2ccc(C(=N)N)cc2N)c(N)c1 | condition not met
N=C(N)c1ccc(OCCCOc2ccc(C(=N)N)cc2N)c(N)c1 | condition not met

====

# System: Pneumocystis carinii
# Run Description: Treatment of Pneumocystis carinii pneumonia in Sprague-Dawley rats (extent of disease by histologic score)
# Assay type: in vivo, male Sprague-Dawley rats
# Conditions Used: 10 mg/kg i.v. daily, 14 days; 3 = scattered cysts, 10-50% of lung involved with some intense areas of infection
The following compounds are shown together with reported Extent of Disease by Histologic Score: number of animals with score 3 values.
Measurement Name: Extent of Disease by Histologic Score: number of animals with score 3 (animals)

Compound | Recorded Number
N=C(N)c1ccc(NCCCCCNc2ccc(C(=N)N)cc2N)c(N)c1 [Example 19] | 2
N=C(N)c1ccc(NCCCNc2ccc(C(=N)N)cc2)cc1 [Example 7] | 0
N=C(N)c1ccc(OCCCOc2ccc(C(=N)N)cc2N)c(N)c1 [Example 5] | 0
N=C(N)c1ccc(OCCOc2ccc(C(=N)N)cc2N)c(N)c1 [Example 3] | 0
N=C(N)c1ccc(NCCCCNc2ccc(C(=N)N)cc2)cc1 [Example 8] | 0

====

# Tested on: Pneumocystis carinii
# Run Description: Treatment of Pneumocystis carinii pneumonia in Sprague-Dawley rats (extent of disease by histologic score)
# Type: in vivo, male Sprague-Dawley rats
# Conditions Used: Table XII composite, tested at 2.5 mg/kg; 3 = scattered cysts, 10-50% of lung involved
This listing pairs compounds with measured Extent of disease by histologic score (combined): number of animals in scoring group 3.
Measurement Name: Extent of disease by histologic score (combined): number of animals in scoring group 3 (animals)

Entry Smiles | Uom | Recorded Number
CN1CCN=C1c1ccc(OCCCCOc2ccc(C3=NCCN3C)cc2)cc1 | animals | 4
COc1cc(C(=N)N)ccc1OCCCCCOc1ccc(C(=N)N)cc1OC | animals | 1
N=C(N)c1ccc(OCCCCOc2ccc(C(=N)N)cc2Cl)c(Cl)c1 | animals | 3

====

# Test system: Pneumocystis carinii
# Run Description: Treatment of Pneumocystis carinii pneumonia in Sprague-Dawley rats (extent of disease by histologic score)
# Type: in vivo, male Sprague-Dawley rats
# Conditions Used: 2.5 mg/kg i.v. daily, 14 days; 4 = >50% of lung involved with many intense areas of focal infection
Measurement Name: Extent of Disease by Histologic Score: number of animals with score 4 (animals)

Molecule | Target Or Test System | Uom | Recorded Number
COc1cc(C2=NCCN2)ccc1OCCCOc1ccc(C2=NCCN2)cc1OC [Example 44] | Pneumocystis carinii | animals | 0
N=C(N)c1ccc(OCCCCOc2ccc(C(=N)N)cc2[N+](=O)[O-])c([N+](=O)[O-])c1 [Example 38] | Pneumocystis carinii | animals | 4
N=C(N)c1ccc(OCCCCCOc2ccc(C(=N)N)cc2Cl)c(Cl)c1 [Example 25] | Pneumocystis carinii | animals | 4
CN1CCN=C1c1ccc(OCCCCOc2ccc(C3=NCCN3C)cc2)cc1 [Example 41] | Pneumocystis carinii | animals | 2
CN1CCN=C1c1ccc(OCCCCCOc2ccc(C3=NCCN3C)cc2)cc1 [Example 42] | Pneumocystis carinii | animals | 3
N=C(N)c1ccc(OCCCCOc2ccc(C(=N)N)cc2Cl)c(Cl)c1 [Example 24] | Pneumocystis carinii | animals | 2

====

# Tested on: Pneumocystis carinii
# Run Description: Treatment of Pneumocystis carinii pneumonia in Sprague-Dawley rats (extent of disease by histologic score)
# Format: in vivo, male Sprague-Dawley rats
# Conditions Used: Table XII composite, 10 mg/kg; 2 = scattered cysts, 5-10% of lung involved
Measurement Name: Extent of disease by histologic score (combined): number of animals in scoring group 2 (animals)

Entry Smiles | Uom | Recorded Number
N=C(N)c1ccc(NCCCNc2ccc(C(=N)N)cc2)cc1 | animals | 2
N=C(N)c1cccc(OCCCCCCOc2cccc(C(=N)N)c2)c1 | animals | 1
N=C(N)c1cccc(OCCCCCOc2cccc(C(=N)N)c2)c1 | animals | 6
N=C(N)c1ccc(NCCCCCNc2ccc(C(=N)N)cc2N)c(N)c1 | animals | 3
c1cc(C2=NCCN2)ccc1OCCCCOc1ccc(C2=NCCN2)cc1 | animals | 3
N=C(N)c1ccc(OCCOc2ccc(C(=N)N)cc2N)c(N)c1 | animals | 0
N=C(N)c1ccc(OCCCCOc2ccc(C(=N)N)cc2)cc1 | animals | 0
N=C(N)c1ccc(NCCNc2ccc(C(=N)N)cc2N)c(N)c1 | animals | 4
N=C(N)c1cccc(OCCCOc2cccc(C(=N)N)c2)c1 | animals | 4

====

# System: Pneumocystis carinii
# Run Description: Treatment of Pneumocystis carinii pneumonia in Sprague-Dawley rats (extent of disease by histologic score)
# Type: in vivo, male Sprague-Dawley rats
# Conditions Used: 5 mg/kg i.v. daily, 14 days; 0.5 = <10 cysts found per 2 sections
Measurement Name: Extent of Disease by Histologic Score: number of animals with score 0.5 (animals)

Compound | Recorded Number
COc1cc(C(=N)N)ccc1OCCCCCOc1ccc(C(=N)N)cc1OC [Example 15] | 0
COc1cc(C(=N)N)ccc1OCCCCOc1ccc(C(=N)N)cc1OC [Example 11] | 3
N=C(N)c1ccc(NCCCNc2ccc(C(=N)N)cc2[N+](=O)[O-])c([N+](=O)[O-])c1 [Example 35] | 0
N=C(N)c1ccc(OCCCCCOc2ccc(C(=N)N)cc2[N+](=O)[O-])c([N+](=O)[O-])c1 [Example 13] | 3
